Test system: IL1-induced NFκB activity
measurementDescription: HEK-BlueIL1β NFκB Reporter Assay
Assay type: cell-based
conditionNotes: nM range, read-out: IC50, inhibition of IL1-induced NFκB activity
outcomeMeasure: IC50 (nM)
Number only, in nM; omit the unit.

Q: Find the measured IC50 of 74804_43F04A: anti-IL1RAP mAb; VH SEQ ID NO:7, VL SEQ ID NO:22, κ light chain (antibody, V domains shown, 74804_43F04A VH; 74804_07K10A VL, 74804_29D13A VL and 74804_43F04A VL) VH: QVQLLQSGAEVKKPGSSVKVSCKASGGTFSIYAIDWVRQAPGQGLEWMGGIIPIFGTENSAQNFQGRITITADKSTNTAYMELSSLRSEDTAVYYCARNGATSDAFDIWGQGTMVTVFS VL: EIVLTQSPGTLSLSPGERATLSCRASLSVSSNYLAWFQQRPGQAPRLLIYGVSRRATGIPDRFSGSGSGTDFTLTISRLEPEDFAVYYCQQYGSSPLTFGGGTKVEIK and report it.
Ans: 2.29

Q: Give IC50 for 74804_51C10A: anti-IL1RAP mAb; VH SEQ ID NO:8, VL SEQ ID NO:24, κ light chain (antibody, V domains shown, 74804_51C10A VH; 74804_51C10A VL) VH: QVQLLQSGAEVKKPGSSVKVSCKASGGTFNIYAIDWVRQAPGQGLEWMGGIIPIFGTANSAQKFQGRVTITADKSTNTAYMELSSLRSEDTAVYYCARNGATSDAFDIWGQGTMVTVSS VL: EIVLTQSPGTLSLSPGERATLSCRASQSVSSNYLAWFQQRPGQAPRLLIYGVSRRATGIPDRFSGSGSGTDFTLTISRLEPEDFAVYYCQQYGSSPLTFGGGTKVEIK
Ans: 2.5
